Tested on: RPMI-8226
Assay: cells
Format: cell-based
Conditions: Homo sapiens, RPMI-8226, 72 h, read-out: LC50

| Compound | Value Prefix | CC50 [µM] |
| --- | --- | --- |
| C[C@H](NP(=O)(OC[C@@H]1C[C@@H](O)[C@H](n2cnc3c(N)ncnc32)O1)Oc1ccccc1)C(=O)OCc1ccccc1 (stereo partly drawn) | = | 14.7 |
| CC(=O)O[C@H]1C(=O)[C@@]2(C)[C@H]([C@H](OC(=O)c3ccccc3)[C@]3(O)C[C@H](OC(=O)[C@H](O)[C@@H](NC(=O)c4ccccc4)c4ccccc4)C(C)=C1C3(C)C)[C@]1(OC(C)=O)CO[C@@H]1C[C@@H]2O [PTX, paclitaxel, reference compound] | = | 0.003 |
| Nc1ncnc2c1ncn2[C@@H]1O[C@H](CO)C[C@H]1O [3′-dA, 3′-Deoxyadenosine, reference compound] | > | 198 |
| C[C@H](N[P@@](=O)(OC[C@@H]1C[C@@H](O)[C@H](n2cnc3c(N)ncnc32)O1)Oc1ccccc1)C(=O)OCc1ccccc1 | = | 25 |
| C[C@H](N[P@](=O)(OC[C@@H]1C[C@@H](O)[C@H](n2cnc3c(N)ncnc32)O1)Oc1ccccc1)C(=O)OCc1ccccc1 | = | 19 |
| CCOC(=O)CCc1ccccc1OP(=O)(N[C@@H](C)C(=O)OCc1ccccc1)OC[C@@H]1C[C@@H](O)[C@H](n2cnc3c(N)ncnc32)O1 (stereo partly drawn) | = | 31.1 |

---

Tested on: RL
Experiment: cells
Assay type: cell-based
Settings: Homo sapiens, 72 h, read-out: LC50
Recorded Endpoint: CC50 (nM)

| Compound | Value Prefix | Measurement |
| --- | --- | --- |
| CC(=O)O[C@H]1C(=O)[C@@]2(C)[C@H]([C@H](OC(=O)c3ccccc3)[C@]3(O)C[C@H](OC(=O)[C@H](O)[C@@H](NC(=O)c4ccccc4)c4ccccc4)C(C)=C1C3(C)C)[C@]1(OC(C)=O)CO[C@@H]1C[C@@H]2O [PTX, paclitaxel, reference compound] | = | 3 |
| Nc1ncnc2c1ncn2[C@@H]1O[C@H](CO)C[C@H]1O [3′-dA, 3′-Deoxyadenosine, reference compound] | > | 198000 |
| C[C@H](N[P@](=O)(OC[C@@H]1C[C@@H](O)[C@H](n2cnc3c(N)ncnc32)O1)Oc1ccccc1)C(=O)OCc1ccccc1 | = | 2640 |

---

Test system: MCF-7
Assay: cells
Type: cell-based
Settings: Homo sapiens, MCF7, 72 h, read-out: MI%
Protocol: The assay was contracted and carried out by WuXi AppTec (Shanghai) Co., Ltd. The tumor cell lines CCRF-CEM, HL-60, KG-1, MOLT-4, K562, MV4-11, THP-1, HEL92.1.7, NCI-H929, RPMI-8226, Jurkat, Z138, RL, HS445, HepG2, MCF-7, Bx-PC-3, HT29, MIA PaCa-2, and SW620 were seeded at cell densities of […] 10^3 cells/well in a 96-well plate the day before drug incubation. […] The data were read and collected by a Spectra Max 340 absorbance microplate reader. […]
Recorded Endpoint: Emax (%)

| Molecule | Measurement |
| --- | --- |
| C[C@H](N[P@](=O)(OC[C@@H]1C[C@@H](O)[C@H](n2cnc3c(N)ncnc32)O1)Oc1ccccc1)C(=O)OCc1ccccc1 | 94 |
| C[C@H](NP(=O)(N[C@@H](C)C(=O)OCc1ccccc1)OC[C@@H]1C[C@@H](O)[C@H](n2cnc3c(N)ncnc32)O1)C(=O)OCc1ccccc1 | 97 |
| C[C@H](NP(=O)(OC[C@@H]1C[C@@H](O)[C@H](n2cnc3c(N)ncnc32)O1)Oc1ccccc1)C(=O)OCc1ccccc1 (some centres unmarked) | 94 |
| C[C@H](NP(=O)(Oc1ccccc1)O[C@@H]1C[C@@H](CO)O[C@H]1n1cnc2c(N)ncnc21)C(=O)OCc1ccccc1 (some centres unmarked) | 94 |
| C[C@H](NP(=O)(Oc1ccccc1)O[C@@H]1C[C@@H](COP(=O)(N[C@H](C)C(=O)OCc2ccccc2)Oc2ccccc2)O[C@H]1n1cnc2c(N)ncnc21)C(=O)OCc1ccccc1 (some centres unmarked) | 97 |

---

Test system: THP-1
Assay: cells
Assay type: cell-based
Conditions: THP-1, maximum inhibitory effect over concentration range
Quick reference: MI% of the listed items.

| Molecule | Unit Spec | MI% |
| --- | --- | --- |
| C[C@H](NP(=O)(OC[C@@H]1C[C@@H](O)[C@H](n2cnc3c(N)ncnc32)O1)Oc1ccccc1)C(=O)OCc1ccccc1 (stereo partly drawn) [Compound 7a] | % | 74 |
| C[C@H](N[P@](=O)(OC[C@@H]1C[C@@H](O)[C@H](n2cnc3c(N)ncnc32)O1)Oc1ccccc1)C(=O)OCc1ccccc1 [Sp-7a] | % | 69 |
| C[C@H](N[P@@](=O)(OC[C@@H]1C[C@@H](O)[C@H](n2cnc3c(N)ncnc32)O1)Oc1ccccc1)C(=O)OCc1ccccc1 [Rp-7a] | % | 91 |

---

Test: Metabolic stability in cryopreserved human hepatocytes
Type: in vitro ADME
Conditions: pH 7.3, read-out: t1/2 (half-life)
Recorded Endpoint: half-life at 1 h, 1 µM (min)

| Compound | Measurement |
| --- | --- |
| CCOC(=O)CCc1ccccc1OP(=O)(N[C@@H](C)C(=O)OCc1ccccc1)OC[C@@H]1C[C@@H](O)[C@H](n2cnc3c(N)ncnc32)O1 (stereo partly shown) | 25.6 |

---

Assay: Plasma stability
Assay type: in vitro ADME
Settings: human, plasma, with EHNA

| Compound | half-life at 24 h, 20 µM |
| --- | --- |
| Nc1ncnc2c1ncn2[C@@H]1O[C@H](CO)C[C@H]1O [3′-dA, 3′-Deoxyadenosine, reference compound] | 252 min |

---

System: Z138
Experiment: cells
Type: cell-based
Conditions: Z138, maximum inhibitory effect over concentration range
Quick reference: MI% of the listed items.

| Compound | Unit Spec | MI% |
| --- | --- | --- |
| C[C@H](NP(=O)(OC[C@@H]1C[C@@H](O)[C@H](n2cnc3c(N)ncnc32)O1)Oc1ccccc1)C(=O)OCc1ccccc1 (stereo partly shown) | % | 95 |
| Nc1ncnc2c1ncn2[C@@H]1O[C@H](CO)C[C@H]1O [3′-dA, 3′-Deoxyadenosine, reference compound] | % | 95 |
| CC(=O)O[C@H]1C(=O)[C@@]2(C)[C@H]([C@H](OC(=O)c3ccccc3)[C@]3(O)C[C@H](OC(=O)[C@H](O)[C@@H](NC(=O)c4ccccc4)c4ccccc4)C(C)=C1C3(C)C)[C@]1(OC(C)=O)CO[C@@H]1C[C@@H]2O [PTX, paclitaxel, reference compound] | % | 99 |
| CCOC(=O)CCc1ccccc1OP(=O)(N[C@@H](C)C(=O)OCc1ccccc1)OC[C@@H]1C[C@@H](O)[C@H](n2cnc3c(N)ncnc32)O1 (stereo partly shown) | % | 76 |

---

System: RL
Assay: cells
Assay type: cell-based
Conditions: Homo sapiens, 72 h, read-out: LC50
Quick reference: CC50 of the listed items.
Recorded Endpoint: CC50

| Compound | Measurement |
| --- | --- |
| C[C@H](N[P@@](=O)(OC[C@@H]1C[C@@H](O)[C@H](n2cnc3c(N)ncnc32)O1)Oc1ccccc1)C(=O)OCc1ccccc1 | 4 µM |
| CCOC(=O)CCc1ccccc1OP(=O)(N[C@@H](C)C(=O)OCc1ccccc1)OC[C@@H]1C[C@@H](O)[C@H](n2cnc3c(N)ncnc32)O1 (stereo partly drawn) | 7.26 µM |
| C[C@H](NP(=O)(OC[C@@H]1C[C@@H](O)[C@H](n2cnc3c(N)ncnc32)O1)Oc1ccccc1)C(=O)OCc1ccccc1 (stereo partly drawn) | 3 µM |

---

Tested on: MCF-7
Experiment: cells
Type: cell-based
Settings: Homo sapiens, MCF7, 72 h, read-out: MI%
Recorded Endpoint: Emax

| Compound | Assay Target | Measurement |
| --- | --- | --- |
| C[C@H](N[P@@](=O)(OC[C@@H]1C[C@@H](O)[C@H](n2cnc3c(N)ncnc32)O1)Oc1ccccc1)C(=O)OCc1ccccc1 [Rp-7a] | MCF-7 | 97% |
| C[C@H](NP(=O)(Oc1cccc2ccccc12)O[C@@H]1C[C@@H](COP(=O)(N[C@H](C)C(=O)OCc2ccccc2)Oc2cccc3ccccc23)O[C@H]1n1cnc2c(N)ncnc21)C(=O)OCc1ccccc1 (stereo partly drawn) [Compound 5b] | MCF-7 | 99% |
| CCOC(=O)CCc1ccccc1OP(=O)(N[C@@H](C)C(=O)OCc1ccccc1)OC[C@@H]1C[C@@H](O)[C@H](n2cnc3c(N)ncnc32)O1 (stereo partly drawn) [Compound 7e] | MCF-7 | 78% |

---

Quick reference: MI% of the listed items.
System: Jurkat
Experiment: cells
Assay type: cell-based
Details: Jurkat, maximum inhibitory effect over concentration range

| Molecule | MI% |
| --- | --- |
| C[C@H](NP(=O)(OC[C@@H]1C[C@@H](O)[C@H](n2cnc3c(N)ncnc32)O1)Oc1ccccc1)C(=O)OCc1ccccc1 (stereo partly drawn) | 100% |
| Nc1ncnc2c1ncn2[C@@H]1O[C@H](CO)C[C@H]1O [3′-dA, 3′-Deoxyadenosine, reference compound] | 20% |
| C[C@H](N[P@@](=O)(OC[C@@H]1C[C@@H](O)[C@H](n2cnc3c(N)ncnc32)O1)Oc1ccccc1)C(=O)OCc1ccccc1 | 97% |
| CCOC(=O)CCc1ccccc1OP(=O)(N[C@@H](C)C(=O)OCc1ccccc1)OC[C@@H]1C[C@@H](O)[C@H](n2cnc3c(N)ncnc32)O1 (stereo partly drawn) | 100% |
| C[C@H](N[P@](=O)(OC[C@@H]1C[C@@H](O)[C@H](n2cnc3c(N)ncnc32)O1)Oc1ccccc1)C(=O)OCc1ccccc1 | 90% |
| CC(=O)O[C@H]1C(=O)[C@@]2(C)[C@H]([C@H](OC(=O)c3ccccc3)[C@]3(O)C[C@H](OC(=O)[C@H](O)[C@@H](NC(=O)c4ccccc4)c4ccccc4)C(C)=C1C3(C)C)[C@]1(OC(C)=O)CO[C@@H]1C[C@@H]2O [PTX, paclitaxel, reference compound] | 97% |
